- Study target: PI3Kδ (p110δ/p85α) Recombinant Human Protein (Homo sapiens (Human), UniProt O00329)
- Sequence (O00329 whole entry): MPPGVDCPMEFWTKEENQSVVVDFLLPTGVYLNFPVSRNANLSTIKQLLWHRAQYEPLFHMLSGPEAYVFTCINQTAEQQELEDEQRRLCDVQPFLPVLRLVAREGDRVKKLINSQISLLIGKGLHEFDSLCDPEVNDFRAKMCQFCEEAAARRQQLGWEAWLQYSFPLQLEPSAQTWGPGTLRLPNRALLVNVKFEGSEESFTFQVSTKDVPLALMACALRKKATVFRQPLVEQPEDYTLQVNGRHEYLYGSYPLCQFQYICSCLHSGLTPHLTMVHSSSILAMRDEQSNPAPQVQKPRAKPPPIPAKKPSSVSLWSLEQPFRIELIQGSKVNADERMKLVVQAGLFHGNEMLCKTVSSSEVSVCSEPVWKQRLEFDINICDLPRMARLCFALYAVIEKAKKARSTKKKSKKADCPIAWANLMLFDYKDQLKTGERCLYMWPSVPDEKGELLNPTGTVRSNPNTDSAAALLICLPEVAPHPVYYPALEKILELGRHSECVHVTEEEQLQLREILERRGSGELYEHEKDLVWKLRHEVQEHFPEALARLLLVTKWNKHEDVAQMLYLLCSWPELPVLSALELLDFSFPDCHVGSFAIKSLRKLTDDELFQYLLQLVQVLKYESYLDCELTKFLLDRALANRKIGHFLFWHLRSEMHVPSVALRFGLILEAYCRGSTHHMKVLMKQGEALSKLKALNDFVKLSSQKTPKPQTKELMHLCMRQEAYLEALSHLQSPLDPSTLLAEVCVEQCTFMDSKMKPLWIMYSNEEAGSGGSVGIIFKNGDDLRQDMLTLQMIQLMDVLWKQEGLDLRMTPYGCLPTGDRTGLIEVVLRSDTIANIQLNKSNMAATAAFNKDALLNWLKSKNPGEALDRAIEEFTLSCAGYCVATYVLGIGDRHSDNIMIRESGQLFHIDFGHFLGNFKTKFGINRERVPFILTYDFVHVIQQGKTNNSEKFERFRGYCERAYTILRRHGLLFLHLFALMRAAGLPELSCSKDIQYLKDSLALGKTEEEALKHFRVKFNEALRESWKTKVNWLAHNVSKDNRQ
- Sequence (P27986 whole entry partner): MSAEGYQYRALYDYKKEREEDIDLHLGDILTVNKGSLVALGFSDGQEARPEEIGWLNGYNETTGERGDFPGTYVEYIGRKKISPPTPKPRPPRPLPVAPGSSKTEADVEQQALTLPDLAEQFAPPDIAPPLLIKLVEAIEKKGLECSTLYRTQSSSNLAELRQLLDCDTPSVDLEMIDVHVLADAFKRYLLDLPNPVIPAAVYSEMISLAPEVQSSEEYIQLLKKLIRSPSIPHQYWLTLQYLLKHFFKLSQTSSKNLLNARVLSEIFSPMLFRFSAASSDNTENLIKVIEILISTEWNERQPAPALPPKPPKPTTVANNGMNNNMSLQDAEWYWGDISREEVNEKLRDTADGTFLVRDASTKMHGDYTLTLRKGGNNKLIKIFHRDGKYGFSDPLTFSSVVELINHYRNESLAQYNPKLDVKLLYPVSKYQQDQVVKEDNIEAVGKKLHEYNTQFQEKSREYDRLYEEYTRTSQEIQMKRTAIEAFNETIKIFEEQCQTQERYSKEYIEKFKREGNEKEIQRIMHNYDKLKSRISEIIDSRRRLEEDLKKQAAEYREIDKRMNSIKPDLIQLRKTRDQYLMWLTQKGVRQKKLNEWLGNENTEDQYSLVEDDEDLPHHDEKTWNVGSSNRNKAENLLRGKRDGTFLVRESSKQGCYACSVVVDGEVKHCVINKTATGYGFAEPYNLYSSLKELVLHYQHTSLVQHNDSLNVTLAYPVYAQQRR
- Test protocol: PI3Kδ Scintillation Proximity Assay
pIC50: −log10 of the molar value. Counter-ions that a name gives are not always drawn.
Measurement label: pIC50

Q. What value of pIC50 has been recorded for this entry: Cc1ccc(S(=O)(=O)N2CC(C3COC3)C2)cc1-c1cnc2c(N)ncnn12 [Example 153]
A. 5.70 to 6.30

Q. State the recorded pIC50 for this entry: Cc1cn2c(-c3cc(S(=O)(=O)N[C@H]4CC[C@H](O)CC4)ccc3C)cnc2c(N)n1 [Example 37]
A. > 7.00

Q. Using the record for Cc1ccc(S(=O)(=O)NC23CC(C(=O)N(C)C)(C2)C3)cc1-c1cnc2c(N)ncnn12 [Example 96, trifluoroacetate salt] , report its pIC50.
A. 6.30 to 7.00

Q. Look at this compound and give its reported pIC50. Cc1ccc(S(=O)(=O)N2CCCC(C(=O)O)C2)cc1-c1cnc2c(N)nc(C(F)(F)F)cn12 (stereo not shown) [Example 510, trifluoroacetate]
A. 6.30 to 7.00

----------
- Study target: PI3Kδ (p110δ/p85α) Recombinant Human Protein (Homo sapiens (Human), UniProt O00329)
- Test protocol: PI3Kδ Scintillation Proximity Assay
pIC50: −log10 of the molar value. Counter-ions that a name gives are not always drawn.
Measurement label: pIC50

Q. Find the recorded pIC50 belonging to Cc1ccc(S(=O)(=O)N2CC(C)OCC2(C)C)cc1-c1cnc2c(N)ncnn12 (stereo not shown) [Example 158] and report it.
A. 5.70 to 6.30

Q. # get_value(readout='pIC50', item= Nc1nc(C(F)(F)F)nn2c(-c3ccc(F)c(S(=O)(=O)NC45CCC(CO)(C4)C5)c3)cnc12 [Example 418] )
A. 6.30 to 7.00

Q. Returns the measured pIC50 for the input compound. Input: Cc1ccc(S(=O)(=O)N[C@H]2CC[C@H](O)CC2)cc1-c1cnc2c(N)nc(-c3ccncc3F)cn12 [Example 81]
A. > 7.00

Q. Returns the measured pIC50 for the input compound. Input: Cc1ccc(S(=O)(=O)NC23CCC(c4nccn4C)(CC2)OC3)cc1-c1cnc2c(N)ncnn12 [Example 439, trifluoroacetate salt]
A. 5.70 to 6.30

Q. pIC50 lookup needed for Cc1ccc(S(=O)(=O)N2CC(F)(F)C[C@H]2CO)cc1-c1cnc2c(N)ncnn12 [Example 212] , thanks.
A. 5.70 to 6.30

Q. Given the entry Cc1ccc(S(=O)(=O)N2CCCC(CN)C2)cc1-c1cnc2c(N)nc(C(F)(F)F)cn12 (stereo not shown) [Example 513, trifluoroacetate] , report its measured pIC50.
A. 6.30 to 7.00

Q. State the recorded pIC50 for this entry: COC[C@H]1CCCN1C(=O)C1CCCN(S(=O)(=O)c2ccc(C)c(-c3cnc4c(N)nc(C(F)(F)F)cn34)c2)C1 (stereo partly shown) [Example 511]
A. < 5.70

----------
Exercise: state measured IC50 for each of the compounds provided.
- System: Phosphorylated Ribosomal Protein S6 (RPS6)
- Test protocol: THP-1 RPS6 ELISA Assay
- Format: cell-based, Human
- Experimental parameters: THP-1 cells; read-out: PI3Kγ_THP1_RPS6_ELISA IC50
Where a name gives a salt, the structure may show the parent alone.

Q. Entry N#CC12CCC(NS(=O)(=O)c3cc(-c4cnc5c(N)ncnn45)ccc3F)(C1)C2 [Example 365, trifluoroacetate salt] has what IC50?
A. 100 to 500 nM

Q. I would be grateful if you could share the reported IC50 for Cc1ccc(S(=O)(=O)N[C@H]2CC[C@H](O)CC2)cc1-c1cn2cc(-c3ccc(C#N)cc3)nc(N)c2n1 .
A. 100 to 500 nM

Q. I am curious: what IC50 value has been reported for Cc1nc(N)c2ncc(-c3cc(S(=O)(=O)N[C@H]4C[C@H](C#N)C4)ccc3C)n2n1 [Example 272, trifluoroacetate salt] ?
A. 100 to 500 nM

Cited source: patent US10479795B2
